Answer each item with its documented protein stability index.
Test system: Saccharomyces cerevisiae
assay_overview: protein stability index of tFT-peptide fusion (C-terminal peptide) (PSI (0-1 scale)); higher = more stable (slower turnover)
experimental_setup: genetic background: wild type; temperature: 30 C
Number only, please.

# protein stability index lookup, item AYTEVKAVRIKL [ALD6 C-terminal 12 aa]
0.69

Next sequence up: EDVDEDTTPFNV [YTP1 C-terminal 12 aa]
0.684

Another sequence: KARPFKCSDKKQ [MZM1 C-terminal 12 aa]
0.728

Do the same for QLINGRKIIAGN [MOT2 C-terminal 12 aa] please
0.7

Similarly, AQAEVIRGLQSL [CAP2 C-terminal 12 aa] ?
0.672

Okay, and DDDNEDVEMSDA [NOC2 C-terminal 12 aa] ?
0.693

Here is the next sequence: TCEACGNRWKFS [DST1 C-terminal 12 aa]
0.697

And what about the sequence KGFQFGLGLAFL [SAM50 C-terminal 12 aa] ?
0.69

Now consider FQSEYNISDILS [CEP3 C-terminal 12 aa] .
0.745

How about this sequence: KEANPIKITPQP [MDL2 C-terminal 12 aa]
0.708

What about DLLNKESEYLNI [FAR11 C-terminal 12 aa] ?
0.755

Okay, and LNKEALKHNMLK [HSH49 C-terminal 12 aa] ?
0.695

Quick one: SQFVNDPFWANI [HIS2 C-terminal 12 aa]
0.756

Same thing, different sequence: KREKTMRNSMLP [YIR036W-A C-terminal 12 aa]
0.736

Then QAKLTAATNAKQ [PDC1 C-terminal 12 aa] ?
0.716

// same read-out, input: CLILSCSWWILN [YJR020W C-terminal 12 aa]
0.152

Quick one: AQGEKDAAATAN [TOM22 C-terminal 12 aa]
0.659

And LVVARDMLLASL [SPC25 C-terminal 12 aa] ?
0.624

What do you get for GSEIDFTDYLGP [PUT3 C-terminal 12 aa] ?
0.716

Entry LMGAALAAVIFL [FIT1 C-terminal 12 aa] please
0.668

Check DGEFVVSDLRLR [YOR283W C-terminal 12 aa] too.
0.682

Entry to check: MKFNVISFLFHK [NAM2 C-terminal 12 aa]
0.615

What do we get for KKNGYIYFYTRC [UBP14 C-terminal 12 aa] ?
0.663

Can you handle LQPMEAFKYDRS [BIO2 C-terminal 12 aa] next?
0.731

* * *

System: Saccharomyces cerevisiae
assay_overview: protein stability index of tFT-peptide fusion (C-terminal peptide) (PSI (0-1 scale)); higher = more stable (slower turnover)
experimental_setup: genetic background: das1 deletion; temperature: 37 C
Provide the reported protein stability index of each item.
Enter a number only.

Returns the measured protein stability index for the input sequence. Input: `FLCIFFFFLISF`
0.32

Would you mind doing `DPKQVRIQSSWL` as well?
0.723

Check `FVLWYFCCVGCM` too.
0.366

Another: `LCRCPVGVFVLL`
0.539

Ok, now `GHHLRVRVILTA`
0.47

How about this sequence: `LVFAFFLLSFFI`
0.549

Likewise for `IFLGFGPLFGRL` ?
0.817

Queued: `FACLTPFCLCLT`
0.574

Try `IGSFFLFFLLIF` next.
0.383

Request: `TLKRCFRWCRTT`
0.699
